- System: HCV Replicon
- test.summary: HCV Replicon Luciferase Assay
- Type: cell-based, Hepatitis C virus
- experimental.setup: Hepatitis C virus; Huh-Luc-Neo cells, 48 h incubation, luciferase reporter; read-out: Replicon Inhibition*, Luciferase
- Description: The identification of inhibitors of HCV replication and/or proliferation has been facilitated by the development of a cell-based system to study HCV replication. […] Expression of HCV IRES driven luciferase reporter activity and HCV RNA is measured to obtain indirect and direct measures of replication of HCV RNA respectively. […]
Recorded IC50 values for a group of molecules are listed next.

structure	IC50
CCn1c(=O)cc(Sc2ccc(Br)cc2)c2ccccc21	1000 to 10000 nM
Cn1c(=O)cc(Sc2ccc(F)cc2)c2ccccc21	1000 to 10000 nM
Cn1c(=O)cc(Sc2ccc(N)cc2)c2cccnc21	< 1000 nM
Cc1ccc(Sc2cc(=O)n(C)c3cc(C)c(C)cc23)cc1	< 1000 nM
COCCOCC(=O)Nc1ccc(Sc2cc(=O)n(C)c3ccccc23)cc1	< 1000 nM
Cc1ccc(Sc2cc(=O)n(C)c3ccc(C)cc23)cc1	< 1000 nM
Cc1ccc(NC(=S)Nc2ccc(Sc3cc(=O)n(C)c4ccc(C)cc34)cc2)cc1	1000 to 10000 nM
CC(=O)Nc1ccc(Sc2cc(=O)n(C)c3ccccc23)cc1	1000 to 10000 nM
Cn1c(=O)cc(Sc2ccc(Cl)cc2)c2ccccc21	1000 to 10000 nM
